- SYSTEM TESTED: T1, human MSLN-R3-his protein (human, UniProt Q13421 487-598)
- T1 construct: Self-made in HEK293E cells; also called human MSLN-R3 protein; hMSLN-R3-his; not shown: His tag
- T1 sequence (Q13421 495-606): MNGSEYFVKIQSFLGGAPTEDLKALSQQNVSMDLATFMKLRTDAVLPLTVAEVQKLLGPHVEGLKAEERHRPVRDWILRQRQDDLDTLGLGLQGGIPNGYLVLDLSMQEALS
- ASSAY PROCEDURE: ELISA on coated antigen, antibody 0.01 nM
TEST READOUT: OD450 (OD450)
Please state the figure in OD450; there is no need to write the unit.

Previously resolved entries follow.
# BINDER, OD450 (OD450)
records = [
    ("S009-F2.16.10 (antibody, human IgG1, kappa, V domains shown, Human-murine chimeric antibody: murine VH/VL on human IgG1 heavy and kappa light constant regions) VH: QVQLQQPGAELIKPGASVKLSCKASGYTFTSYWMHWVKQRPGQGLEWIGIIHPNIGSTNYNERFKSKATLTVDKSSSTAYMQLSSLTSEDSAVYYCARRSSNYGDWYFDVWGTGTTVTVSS VL: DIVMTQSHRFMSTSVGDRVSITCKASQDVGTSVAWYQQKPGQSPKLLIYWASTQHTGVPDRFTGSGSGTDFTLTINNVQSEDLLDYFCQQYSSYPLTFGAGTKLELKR", 0.05),
    ("S009-F2.47.1 (antibody, human IgG1, kappa, V domains shown, Human-murine chimeric antibody: murine VH/VL on human IgG1 heavy and kappa light constant regions) VH: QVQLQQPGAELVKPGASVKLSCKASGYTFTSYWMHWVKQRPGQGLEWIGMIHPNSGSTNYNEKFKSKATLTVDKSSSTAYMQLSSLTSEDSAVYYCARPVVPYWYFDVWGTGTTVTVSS VL: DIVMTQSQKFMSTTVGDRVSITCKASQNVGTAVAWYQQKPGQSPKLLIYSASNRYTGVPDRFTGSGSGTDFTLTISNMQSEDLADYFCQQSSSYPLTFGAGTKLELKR", 0.05),
    ("S009-F2.58.8 (antibody, human IgG1, kappa, V domains shown, Human-murine chimeric antibody: murine VH/VL on human IgG1 heavy and kappa light constant regions) VH: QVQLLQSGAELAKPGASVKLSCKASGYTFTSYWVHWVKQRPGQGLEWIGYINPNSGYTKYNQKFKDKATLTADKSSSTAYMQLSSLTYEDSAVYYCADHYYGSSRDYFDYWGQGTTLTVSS VL: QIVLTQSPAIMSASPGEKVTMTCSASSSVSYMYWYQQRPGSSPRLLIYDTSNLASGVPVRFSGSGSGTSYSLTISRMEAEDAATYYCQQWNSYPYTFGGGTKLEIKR", 0.05),
]

Here is another binder to look at.
Problem: Please report the recorded OD450 for S009-F2.13.3 (antibody, human IgG1, kappa, V domains shown, Human-murine chimeric antibody: murine VH/VL on human IgG1 heavy and kappa light constant regions) VH: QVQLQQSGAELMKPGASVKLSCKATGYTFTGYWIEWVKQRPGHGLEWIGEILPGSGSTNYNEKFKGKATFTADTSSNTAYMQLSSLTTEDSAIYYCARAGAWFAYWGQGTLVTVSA VL: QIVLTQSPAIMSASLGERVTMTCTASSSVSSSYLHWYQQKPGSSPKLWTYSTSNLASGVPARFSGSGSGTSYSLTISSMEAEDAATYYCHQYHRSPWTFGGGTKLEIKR .
Result: 0.05
